The reported numbers originate from ChEMBL document CHEMBL2176962.

Molecular target: Human immunodeficiency virus type 1 integrase (Human immunodeficiency virus 1)
Sequence (Q7ZJM1 whole entry): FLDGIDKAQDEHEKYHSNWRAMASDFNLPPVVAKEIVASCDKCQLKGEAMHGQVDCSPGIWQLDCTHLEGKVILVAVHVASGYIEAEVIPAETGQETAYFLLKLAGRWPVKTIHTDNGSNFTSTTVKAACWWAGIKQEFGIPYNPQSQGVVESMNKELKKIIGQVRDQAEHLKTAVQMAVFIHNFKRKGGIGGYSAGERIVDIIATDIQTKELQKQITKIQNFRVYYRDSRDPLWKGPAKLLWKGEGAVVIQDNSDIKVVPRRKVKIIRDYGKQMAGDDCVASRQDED
Assay: Inhibition of HIV1 integrase 3'-processing activity using [32P]-labeled linear oligonucleotide substrate
pIC50: −log10 of the molar value.
Property: pIC50; scope: individual compounds

>  <MOLECULE_SMILES>
C[C@@H](Nc1c(C(=O)NCc2ccc(F)cc2)nc(Br)c2cccnc12)c1ccccc1

>  <SYSTEM_NAME>
Human immunodeficiency virus type 1 integrase (Human immunodeficiency virus 1)

>  <VALUE_MODIFIER>
<

>  <pIC50>
3.95

$$$$
>  <MOLECULE_SMILES>
O=CNCCCCCCNc1nc(C(=O)NCc2ccc(F)cc2)c(O)c2ncccc12

>  <SYSTEM_NAME>
Human immunodeficiency virus type 1 integrase (Human immunodeficiency virus 1)

>  <VALUE_MODIFIER>
=

>  <pIC50>
5.22

$$$$
>  <MOLECULE_SMILES>
O=C(NCc1ccc(F)cc1)c1nc(Br)c2cccnc2c1O

>  <SYSTEM_NAME>
Human immunodeficiency virus type 1 integrase (Human immunodeficiency virus 1)

>  <VALUE_MODIFIER>
=

>  <pIC50>
4.85

$$$$
>  <MOLECULE_SMILES>
C[C@@H](CO)Nc1nc(C(=O)NCc2ccc(F)cc2)c(O)c2ncccc12

>  <SYSTEM_NAME>
Human immunodeficiency virus type 1 integrase (Human immunodeficiency virus 1)

>  <VALUE_MODIFIER>
=

>  <pIC50>
5.11

$$$$
>  <MOLECULE_SMILES>
Cc1ccc(S(=O)(=O)Oc2c(C(=O)NCc3ccc(F)cc3)nc(Br)c3cccnc23)cc1

>  <SYSTEM_NAME>
Human immunodeficiency virus type 1 integrase (Human immunodeficiency virus 1)

>  <VALUE_MODIFIER>
<

>  <pIC50>
3.95

$$$$
>  <MOLECULE_SMILES>
CS(=O)(=O)NCCCN(c1nc(C(=O)NCc2ccc(F)cc2)c(O)c2ncccc12)S(C)(=O)=O

>  <SYSTEM_NAME>
Human immunodeficiency virus type 1 integrase (Human immunodeficiency virus 1)

>  <VALUE_MODIFIER>
=

>  <pIC50>
4.47

$$$$
>  <MOLECULE_SMILES>
O=C(NCc1ccc(F)cc1)c1nc(N2CCCCS2(=O)=O)c2cccnc2c1O

>  <SYSTEM_NAME>
Human immunodeficiency virus type 1 integrase (Human immunodeficiency virus 1)

>  <VALUE_MODIFIER>
=

>  <pIC50>
4.96

$$$$
>  <MOLECULE_SMILES>
CS(=O)(=O)NCCCCCCN(c1nc(C(=O)NCc2ccc(F)cc2)c(O)c2ncccc12)S(C)(=O)=O

>  <SYSTEM_NAME>
Human immunodeficiency virus type 1 integrase (Human immunodeficiency virus 1)

>  <VALUE_MODIFIER>
=

>  <pIC50>
4.96

$$$$
>  <MOLECULE_SMILES>
CS(=O)(=O)Oc1c(C(=O)NCc2ccc(F)cc2)nc(Br)c2cccnc12

>  <SYSTEM_NAME>
Human immunodeficiency virus type 1 integrase (Human immunodeficiency virus 1)

>  <VALUE_MODIFIER>
<

>  <pIC50>
3.95

$$$$
>  <MOLECULE_SMILES>
O=C(NCc1ccc(F)cc1)c1nc(Br)c2cccnc2c1NCc1ccccc1

>  <SYSTEM_NAME>
Human immunodeficiency virus type 1 integrase (Human immunodeficiency virus 1)

>  <VALUE_MODIFIER>
<

>  <pIC50>
4.00

$$$$
